# measurementTarget: histamine-H1 receptors (Cavia porcellus, UniProt P31389)
# Construct: performed in guinea pig cerebellum membranes as described previously; from tissue; host or cells: guinea pig cerebellum membranes
# Sequence (P31389 whole entry): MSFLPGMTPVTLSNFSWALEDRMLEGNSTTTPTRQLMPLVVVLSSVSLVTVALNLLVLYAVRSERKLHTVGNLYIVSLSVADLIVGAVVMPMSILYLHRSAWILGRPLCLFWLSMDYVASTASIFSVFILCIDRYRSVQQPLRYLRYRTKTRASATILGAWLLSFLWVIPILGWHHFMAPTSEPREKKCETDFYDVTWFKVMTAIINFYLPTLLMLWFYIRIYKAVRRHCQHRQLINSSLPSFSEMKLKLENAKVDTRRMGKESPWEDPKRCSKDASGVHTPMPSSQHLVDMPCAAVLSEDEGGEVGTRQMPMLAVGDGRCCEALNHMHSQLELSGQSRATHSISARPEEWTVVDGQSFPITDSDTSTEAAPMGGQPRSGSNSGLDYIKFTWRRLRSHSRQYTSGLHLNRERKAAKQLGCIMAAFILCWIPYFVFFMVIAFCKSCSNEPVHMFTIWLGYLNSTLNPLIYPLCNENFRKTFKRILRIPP
# protocolNotes: Histamine-H1 receptor binding assay ([3H]-mepyramine displacement)
# Design: species or system guinea pig
measurementKind: IC50 (µM)

| smilesNotation | measurementKind | dataValue |
| --- | --- | --- |
| COc1ccc(CN2CCC(c3cn(CCc4ccsc4)c4cc(F)ccc34)CC2)cc1C(=O)O | IC50 | 0.065 |

----------
# pIC50 per record follows
# measurementTarget: histamine-H1 receptors (Cavia porcellus, UniProt P31389)
# Construct: performed in guinea pig cerebellum membranes as described previously; from tissue; host or cells: guinea pig cerebellum membranes
# protocolNotes: Histamine-H1 receptor binding assay ([3H]-mepyramine displacement)
# Design: species or system guinea pig
# assayConditions: guinea pig cerebellum membranes, 0.7 nM [3H]-mepyramine, 30 min at 30° C.; read-out: Binding to receptor H1 (IC50)
pIC50: −log10 of the molar value.

| smilesNotation | measurementTarget | pIC50 |
| --- | --- | --- |
| O=C(O)c1ccccc1OCCN1CCC(c2cn(Cc3ccc(Cl)s3)c3ccccc23)CC1 | histamine-H1 receptors (Cavia porcellus, UniProt P31389) | 6.92 |
| O=C(O)c1ccccc1OCCN1CCC(c2cn(CCCOc3ccc4c(c3)OCO4)c3ccccc23)CC1 | histamine-H1 receptors (Cavia porcellus, UniProt P31389) | 7.11 |
| O=C(O)c1ccccc1OCCN1CCC(c2cn(CCC3OCCO3)c3ccccc23)CC1 | histamine-H1 receptors (Cavia porcellus, UniProt P31389) | 6.45 |
| COc1ccc(CN2CCC(c3cn(Cc4ccc(Cl)s4)c4cc(F)ccc34)CC2)cc1C(=O)O | histamine-H1 receptors (Cavia porcellus, UniProt P31389) | 6.82 |
| O=C(O)c1ccccc1OCCN1CCC(c2cn(CC3OCCO3)c3ccccc23)CC1 | histamine-H1 receptors (Cavia porcellus, UniProt P31389) | 6.70 |
| O=C(O)c1ccccc1OCCN1CCC(c2cn(Cc3ccco3)c3ccccc23)CC1 | histamine-H1 receptors (Cavia porcellus, UniProt P31389) | 7.01 |
| COc1ccc(CN2CCC(c3cn(Cc4cccs4)c4ccccc34)CC2)cc1C(=O)O | histamine-H1 receptors (Cavia porcellus, UniProt P31389) | 6.90 |
| O=C(O)c1ccccc1OCCN1CCC(c2cn(CCc3ccsc3)c3cc(F)ccc23)CC1 | histamine-H1 receptors (Cavia porcellus, UniProt P31389) | 7.64 |
| COc1ccc(CN2CCC(c3cn(Cc4ccoc4)c4ccccc34)CC2)cc1C(=O)O | histamine-H1 receptors (Cavia porcellus, UniProt P31389) | 6.81 |
| O=C(O)c1ccccc1OCCN1CCC(c2cn(CCOc3ccc4c(c3)OCO4)c3ccccc23)CC1 | histamine-H1 receptors (Cavia porcellus, UniProt P31389) | 6.94 |
| COc1ccc(CN2CCC(c3cn(Cc4ccoc4)c4cc(F)ccc34)CC2)cc1C(=O)O | histamine-H1 receptors (Cavia porcellus, UniProt P31389) | 7.02 |
| O=C(O)c1ccccc1OCCN1CCC(c2cn(CCc3cccs3)c3ccccc23)CC1 | histamine-H1 receptors (Cavia porcellus, UniProt P31389) | 7.37 |
| COc1ccc2c(c1)c(C1CCN(CCOc3ccccc3C(=O)O)CC1)cn2CCc1ccsc1 | histamine-H1 receptors (Cavia porcellus, UniProt P31389) | 7.29 |
| O=C(O)c1ccccc1OCCN1CCC(c2cn(Cc3ccsc3)c3ccccc23)CC1 | histamine-H1 receptors (Cavia porcellus, UniProt P31389) | 6.40 |
| O=C(O)c1cccc(CN2CCC(c3cn(Cc4cccs4)c4ccccc34)CC2)c1 | histamine-H1 receptors (Cavia porcellus, UniProt P31389) | 7.05 |
| COc1ccc(CN2CCC(c3cn(CCc4cccs4)c4cc(F)ccc34)CC2)cc1C(=O)O | histamine-H1 receptors (Cavia porcellus, UniProt P31389) | 6.87 |
| O=C(O)c1ccccc1OCCN1CCC(c2cn(CCCC3OCCO3)c3ccccc23)CC1 | histamine-H1 receptors (Cavia porcellus, UniProt P31389) | 6.53 |

The origin of these recorded values is patent US7189741B2.
